- Tested on: SK-OV-3
- protocol: NCI tumour cell line growth inhibition, 48 h
Active and inactive are the calls of the source. Cut-off read from the data, not from the text of the source: active = GI50 up to about 1.1 µM and inactive = higher.
Recorded GI50 for the following molecules

# molecule, GI50
measured = [
    ("CCc1ccccc1NC(=O)CC1NC(=O)CS1 (stereo unspecified)", "> 100 µM (inactive)"),
    ("COC(=O)C(NC(=O)C(CC(=O)OC(C)(C)C)NC(=O)OC(C)(C)C)C(O)c1ccccc1 (stereo unspecified)", "16.1 µM (inactive)"),
    ("NC(=O)c1nc[nH]c1/N=N/SCC(N)C(=O)O (stereo unspecified)", "2.88 µM (inactive)"),
    ("COc1cccc(/C=N/n2c(-c3ccccc3)n[nH]c2=O)c1", "44.2 µM (inactive)"),
    ("COC(=O)C1Cc2c([nH]c3ccccc23)C(c2cccc(O)c2)N1 (stereo unspecified)", "56.4 µM (inactive)"),
    ("CC(=O)Oc1cc2c(n(C)c1=O)-c1ccccc1C2", "> 100 µM (inactive)"),
    ("C=CCc1cc(OC)c2c(c1)C(OC(C)=O)CC(c1ccc(OC)c(OC)c1)O2 (stereo unspecified)", "> 100 µM (inactive)"),
    ("CN(/N=C/c1ccnc2ccccc12)c1ccc(Cl)cc1[N+](=O)[O-]", "> 100 µM (inactive)"),
    ("CC(C)N(CCn1c2c3ccccc3ccc2c2oc(=O)c3ccccc3c21)C(C)C", "> 100 µM (inactive)"),
    ("O=C(c1c(F)c(F)c(F)c(F)c1F)n1c(O)nc2ccccc21", "15.4 µM (inactive)"),
    ("O=[N+]([O-])c1ccc(C(=S)Nc2ccccc2)o1", "11.4 µM (inactive)"),
    ("O=C(O)CCC(NC(=O)/C(=C/c1ccccc1)NC(=O)c1ccccc1)C(=O)O (stereo unspecified)", "> 100 µM (inactive)"),
    ("Cc1cc(-c2ccc(C(=O)C(Cl)(Cl)Cl)[nH]2)on1", "60 µM (inactive)"),
    ("O=C(/C=C/c1ccccc1O)CC(=O)/C=C/c1ccccc1O", "> 10 µM (inactive)"),
    ("C=C(N=[N+]=[N-])c1cn(C2CC(O)C(CO)O2)c(=O)[nH]c1=O (stereo unspecified)", "> 100 µM (inactive)"),
    ("COC(=O)C(/C(=N/N)C(=O)Nc1cccc(O)c1)c1nc2ccccc2nc1O (stereo unspecified)", "> 100 µM (inactive)"),
    ("CCOC(=O)C(CS)NC(=O)CCCCCCCC(=O)O (stereo unspecified)", "> 100 µM (inactive)"),
    ("N#Cc1c(-c2ccccc2)nc(-c2ccccc2)sc1=S", "> 100 µM (inactive)"),
    ("COc1cc([C@@H]2c3cc4c(cc3[C@@H](c3c(O)cc(O)c5c3O[C@H](c3ccc(O)c(O)c3)[C@H](OC(=O)c3cc(O)c(O)c(O)c3)C5)[C@H]3COC(=O)[C@H]23)OCO4)cc(OC)c1O", "44.1 µM (inactive)"),
    ("CC(=O)Oc1cccc2c1C(=O)c1c(OC(C)=O)cc(C)cc1C2=O", "34 µM (inactive)"),
    ("COc1cc(/N=C(\\N)N=C(N)N)c2ncccc2c1", "> 100 µM (inactive)"),
]
